Numbers sourced from ChEMBL document CHEMBL2157894.

// values below are reported selectivity ratio
assay: Selectivity index, ratio of IC50 for mouse J774 cells to IC50 for Leishmania donovani; format: toxicity, cell-based; conditions: J774 cells versus Leishmania donovani, read-out: Ratio IC50
Parameter: selectivity ratio

CC(C)Oc1cc(NC(=N)c2ccccn2)ccc1-c1ccc(-c2ccc(NC(=N)c3ccccn3)cc2F)o1.CS(=O)(=O)O | 180
COc1cc(NC(=N)c2ccccn2)ccc1-c1ccc(-c2ccc(NC(=N)c3ccccn3)cc2OC(C)C)o1.CS(=O)(=O)O | 2000
CC(C)Oc1cc(-c2ccc(-c3ccc(NC(=N)c4ccccn4)c(OC(C)C)c3)o2)ccc1NC(=N)c1ccccn1.CS(=O)(=O)O | 385
CS(=O)(=O)O.Cc1cc(NC(=N)c2ccccn2)ccc1-c1ccc(-c2ccc(NC(=N)c3ccccn3)cc2OC(C)C)o1 | 619
CC(C)Oc1cc(NC(=N)c2ccccn2)ccc1-c1ccc(-c2ccc(NC(=N)c3ccccn3)cc2)o1.CS(=O)(=O)O | 2080

* * *

The compounds listed here are annotated with their pIC50.
test system: J774; test: Cytotoxicity against mouse J774 cells; type: cell-based
pIC50: −log10 of the molar value.
Parameter: pIC50

CC(C)Oc1cc(NC(=N)c2ccccn2)ccc1-c1ccc(-c2ccc(NC(=N)c3ccccn3)cc2F)o1.CS(=O)(=O)O | 4.57
CC(C)Oc1cc(NC(=N)c2ccccn2)ccc1-c1ccc(-c2ccc(NC(=N)c3ccccn3)cc2)o1.CS(=O)(=O)O | 4.96
CC(C)Oc1cc(-c2ccc(-c3ccc(NC(=N)c4ccccn4)c(OC(C)C)c3)o2)ccc1NC(=N)c1ccccn1.CS(=O)(=O)O | 5.00
COc1cc([C@@H]2c3cc4c(cc3[C@H](O)[C@H]3COC(=O)[C@H]23)OCO4)cc(OC)c1OC | 7.74
COc1cc(NC(=N)c2ccccn2)ccc1-c1ccc(-c2ccc(NC(=N)c3ccccn3)cc2OC(C)C)o1.CS(=O)(=O)O | 4.85
CS(=O)(=O)O.Cc1cc(NC(=N)c2ccccn2)ccc1-c1ccc(-c2ccc(NC(=N)c3ccccn3)cc2OC(C)C)o1 | 4.89

* * *

system: Leishmania amazonensis; assay: Antileishmanial activity against amastigote form of Leishmania amazonensis expressing beta-lactamase infected in CD1 mouse macrophages after 72 hrs by nitrocefin-based spectrophotometric analysis; type: functional, organism-based
pIC50: −log10 of the molar value.
Rule: pIC50 under 7 gives Not satisfied, otherwise Satisfied.

CC(C)Oc1cc(NC(=N)c2ccccn2)ccc1-c1ccc(-c2ccc(NC(=N)c3ccccn3)cc2F)o1.CS(=O)(=O)O | Not satisfied
CC(C)Oc1cc(-c2ccc(-c3ccc(NC(=N)c4ccccn4)c(OC(C)C)c3)o2)ccc1NC(=N)c1ccccn1.CS(=O)(=O)O | Not satisfied
CS(=O)(=O)O.Cc1cc(NC(=N)c2ccccn2)ccc1-c1ccc(-c2ccc(NC(=N)c3ccccn3)cc2OC(C)C)o1 | Satisfied

* * *

assay: Selectivity index, ratio of IC50 for mouse J774 cells to IC50 for Leishmania amazonensis; format: toxicity, cell-based; settings: J774 cells versus Leishmania amazonensis, read-out: Ratio IC50
Parameter: selectivity ratio

CC(C)Oc1cc(NC(=N)c2ccccn2)ccc1-c1ccc(-c2ccc(NC(=N)c3ccccn3)cc2)o1.CS(=O)(=O)O | 115
CS(=O)(=O)O.Cc1cc(NC(=N)c2ccccn2)ccc1-c1ccc(-c2ccc(NC(=N)c3ccccn3)cc2OC(C)C)o1 | 265
COc1cc(NC(=N)c2ccccn2)ccc1-c1ccc(-c2ccc(NC(=N)c3ccccn3)cc2OC(C)C)o1.CS(=O)(=O)O | 127
CC(C)Oc1cc(NC(=N)c2ccccn2)ccc1-c1ccc(-c2ccc(NC(=N)c3ccccn3)cc2F)o1.CS(=O)(=O)O | 142
